Just for reference, ChEMBL document CHEMBL3272247 is where these values come from.

# TESTED TARGET: Progesterone receptor (Oryctolagus cuniculus)
# TEST METHOD NOTES: Displacement of [3H]progesterone from rabbit progesterone receptor after 24 hrs at 0.1 nM to 10 mM

# MOLECULE, TESTED TARGET, COMPARISON SIGN, RBA
measured = [
    ("CC(=O)[C@H]1CC[C@H]2C[C@@H]3[C@@H](CCC4=CC(=O)CC[C@H]43)C[C@@]21C", "Progesterone receptor (Oryctolagus cuniculus)", "=", 1.2),
    ("C[C@]12C[C@@H]3CCC4=CC(=O)CC[C@H]4[C@@H]3C[C@@H]1CC[C@@H]2O", "Progesterone receptor (Oryctolagus cuniculus)", "<", 0.4),
    ("C#C[C@]1(O)CC[C@H]2C[C@@H]3[C@@H](CCC4=CC(=O)CC[C@H]43)C[C@@]21C", "Progesterone receptor (Oryctolagus cuniculus)", "=", 2),
    ("C#C[C@]1(O)CC[C@H]2C[C@H]3c4ccc(O)cc4CC[C@H]3C[C@@]21C", "Progesterone receptor (Oryctolagus cuniculus)", "<", 0.4),
    ("C[C@]12C[C@@H]3CCC4=C(CCC(=O)C4)[C@@H]3C[C@@H]1CC[C@@H]2O", "Progesterone receptor (Oryctolagus cuniculus)", "<", 0.4),
    ("COc1ccc2c(c1)CC[C@H]1C[C@@]3(C)C(=CC[C@@H]3OC(C)=O)C=C21", "Progesterone receptor (Oryctolagus cuniculus)", "<", 0.4),
    ("CC(=O)[C@H]1CC[C@H]2C[C@@H]3[C@@H](CCC4CC(=O)C=C[C@H]43)C[C@@]21C (some centres not stated)", "Progesterone receptor (Oryctolagus cuniculus)", "=", 1.9),
]

====

# Species on record: Oryctolagus cuniculus
# TEST METHOD NOTES: Displacement of [3H]estradiol from rabbit estrogen receptor after 24 hrs at 0.1 nM to 10 mM
VALUE TYPE: RBA

# SMILES ENTRY, COMPARISON SIGN, DATA VALUE
measured = [
    ("COc1ccc2c(c1)CC[C@H]1C[C@@]3(C)C(=CC[C@@H]3OC(C)=O)C=C21", "<", 0.025),
    ("C[C@]12C[C@@H]3CCC4=CC(=O)CC[C@H]4[C@@H]3C[C@@H]1CC[C@@H]2O", "=", 0.06),
    ("C[C@]12C[C@@H]3CCc4cc(O)ccc4[C@@H]3C[C@@H]1CC[C@@H]2O", "=", 2.9),
    ("C#C[C@]1(O)CC[C@H]2C[C@H]3c4ccc(O)cc4CC[C@H]3C[C@@]21C", "=", 4.4),
    ("C[C@]12C[C@@H]3CCC4=C(CCC(=O)C4)[C@@H]3C[C@@H]1CC[C@@H]2O", "<", 0.085),
]
